In this section we review reported LE (ligand efficiency) values for a set of molecules.
# Test target: Hop TPR2A-Hsp90 MEEVD interaction (Homo sapiens)
# Construct: The TPR2A domain of human Hop, residues 218-350, was cloned from full-length Hop cDNA; made in house; host or cells: Escherichia coli BL21 (DE3) pLysS
# Assay details: LANCE (TR-FRET) proximity assay of Hop TPR2A binding to biotin-Hsp90 MEEVD peptide
# Measurement parameters: approximated from LANCE IC50 values using number of heavy atoms
Number only, please.

{"columns": ["Molecule", "LE (ligand efficiency)"],
 "data": [
  ["Cc1cccc(C2c3[nH]c4ccccc4c3CC3C(=O)N(c4ccccc4C(=O)O)C(=O)N32)c1 (centres unmarked) [Compound 11]", 0.17],
  ["COc1cccc(C2c3[nH]c4ccccc4c3CC3C(=O)N(c4ccc(C(=O)O)cc4)C(=O)N32)c1 (centres unmarked) [Compound 13]", 0.12]
]}

Name the recorded LE (ligand efficiency) for O=C(O)/C=C\C(=O)O [Compound 2] .
0.47

Name the recorded LE (ligand efficiency) for O=C(O)CCC(=O)O [Compound 1, succinic acid] .
0.42

Name the recorded LE (ligand efficiency) for COc1ccc(C2c3[nH]c4ccccc4c3CC3C(=O)N(c4ccccc4C(=O)NC(CC(=O)O)C(=O)O)C(=O)N32)cc1 (centres unmarked) [Compound 7] .
0.13

====

# Test target: Hop TPR2A-Hsp90 MEEVD interaction (Homo sapiens, UniProt P31948)
# Construct: The TPR2A domain of human Hop, residues 218-350, was cloned from full-length Hop cDNA; made in house; host or cells: Escherichia coli BL21 (DE3) pLysS
# Sequence (P31948 218-350): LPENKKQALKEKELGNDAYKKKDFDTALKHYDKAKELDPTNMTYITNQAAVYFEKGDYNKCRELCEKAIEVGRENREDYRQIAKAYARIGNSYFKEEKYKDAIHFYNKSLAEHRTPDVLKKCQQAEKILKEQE
# Assay details: LANCE (TR-FRET) proximity assay of Hop TPR2A binding to biotin-Hsp90 MEEVD peptide
# Measurement parameters: approximated from LANCE IC50 values using number of heavy atoms
Assay metric: LE (ligand efficiency)

# annotated cases, reported LE (ligand efficiency) shown
{"columns": ["Compound", "LE (ligand efficiency)"],
 "data": [
  ["O=C(O)c1ccccc1N1C(=O)C2Cc3c([nH]c4ccccc34)C(c3ccccc3)N2C1=O (stereo not shown)", 0.14],
  ["Cc1ccc(C2c3[nH]c4ccccc4c3CC3C(=O)N(c4ccccc4C(=O)O)C(=O)N32)cc1 (stereo not shown)", 0.15],
  ["COc1cccc(C2c3[nH]c4ccccc4c3CC3C(=O)N(c4ccccc4C(=O)NCC(=O)O)C(=O)N32)c1 (stereo not shown)", 0.13]
]}

For the next question, use this compound.
Name the recorded LE (ligand efficiency) for Cc1ccccc1C1c2[nH]c3ccccc3c2CC2C(=O)N(c3ccccc3C(=O)O)C(=O)N21 (stereo not shown) .
0.17

====

# Test target: Hop TPR2A (Homo sapiens, UniProt P31948)
# Sequence (P31948 218-350): as above
Assay metric: pKd
Answer as the number alone; pKd is minus log10 of concentration in mol/L.

Param readout = pKd; param system = Hop TPR2A (Homo sapiens, UniProt P31948); param query = Cc1ccc(C2c3[nH]c4ccccc4c3CC3C(=O)N(c4ccccc4C(=O)O)C(=O)N32)cc1 (stereo not shown) ; response: value
3.14
